The measurements presented in this section are drawn from the Kinase Knowledgebase extract (Sharma et al. 2016).

Hi! I'm sharing some pIC50 results obtained with EGFR (Human), P00533 [T790M/L858R].
Sequence (P00533 whole entry T790M/L858R, looked up): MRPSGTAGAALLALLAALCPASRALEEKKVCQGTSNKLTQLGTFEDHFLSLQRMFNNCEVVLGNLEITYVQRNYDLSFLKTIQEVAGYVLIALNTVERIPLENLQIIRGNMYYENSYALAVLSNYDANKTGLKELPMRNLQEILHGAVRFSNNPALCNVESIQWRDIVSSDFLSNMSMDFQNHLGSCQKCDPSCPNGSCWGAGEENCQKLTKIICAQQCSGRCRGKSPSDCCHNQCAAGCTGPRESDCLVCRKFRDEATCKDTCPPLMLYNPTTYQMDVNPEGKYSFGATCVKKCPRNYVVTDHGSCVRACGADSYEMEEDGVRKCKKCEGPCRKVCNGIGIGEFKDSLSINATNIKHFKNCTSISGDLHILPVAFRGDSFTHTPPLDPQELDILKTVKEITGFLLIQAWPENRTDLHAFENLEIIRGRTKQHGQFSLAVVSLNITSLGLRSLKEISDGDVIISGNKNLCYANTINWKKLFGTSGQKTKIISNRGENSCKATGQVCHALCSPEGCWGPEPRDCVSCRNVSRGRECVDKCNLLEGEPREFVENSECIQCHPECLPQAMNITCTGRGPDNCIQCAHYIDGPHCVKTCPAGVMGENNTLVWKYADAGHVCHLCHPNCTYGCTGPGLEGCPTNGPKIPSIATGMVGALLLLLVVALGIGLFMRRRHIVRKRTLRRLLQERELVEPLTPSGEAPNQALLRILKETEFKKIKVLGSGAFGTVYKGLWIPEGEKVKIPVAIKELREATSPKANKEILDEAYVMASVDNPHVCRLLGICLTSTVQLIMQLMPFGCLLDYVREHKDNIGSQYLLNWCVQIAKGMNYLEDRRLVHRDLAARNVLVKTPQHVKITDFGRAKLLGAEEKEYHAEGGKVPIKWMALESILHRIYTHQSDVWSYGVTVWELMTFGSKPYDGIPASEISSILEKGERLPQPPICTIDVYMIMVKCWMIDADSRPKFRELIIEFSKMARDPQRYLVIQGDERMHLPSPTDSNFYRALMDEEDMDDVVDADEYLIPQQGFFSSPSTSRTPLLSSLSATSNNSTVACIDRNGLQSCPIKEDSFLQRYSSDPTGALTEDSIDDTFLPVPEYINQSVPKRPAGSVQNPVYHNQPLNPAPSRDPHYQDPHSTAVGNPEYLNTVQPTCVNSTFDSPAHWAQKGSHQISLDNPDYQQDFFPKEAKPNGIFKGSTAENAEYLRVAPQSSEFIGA
pIC50: −log10 of the molar value.

# compound.smiles, pIC50
rows = [
    ("O=C(C=CCN1CCCC1)Nc1cccc(Nc2cc(Nc3ccc(F)c(Cl)c3)ncn2)c1", "≥ 8.00"),
    ("CN(C)C/C=C/C(=O)Nc1cccc(Nc2cc(Nc3ccc(F)c(Cl)c3)ncn2)n1", "≥ 8.00"),
]
